- method.description: yeast display, Sf9 membrane polyspecificity reagent, FACS + sequencing; frameworks hold sequencing errors

{"item.sequence": "QFQLEESGGGLVQAGGSLRLSCAASGITFRRYTMGWYRQAPGKERELVATISLSDGNTYYADSVKGRFTISRDNAKNTVYYQMNSLKPEDTAVYYCNARHTWHQTYDYWGQGTQVTVSS", "polyreactivity (PSR sort gate)": "low polyreactivity"}
{"item.sequence": "QVQLVESGGGLVQAGGSLRLSCAASGSIFDWYAMGWYRQAPGKEGELVAAISSGDSTYYADSVKGRFTISRDNAKITVYLQMNSLKPEDTAVYDCAAEFHDDHPSFDYWGQGTQVTVSS", "polyreactivity (PSR sort gate)": "low polyreactivity"}
{"item.sequence": "QLQLVESGGVLVQAGGSLRLSCAASGLTFAYYAMGSYRQAPGKERELVAAISWNGGRTYYAYSVKGRFTISRDNAKNTVYLQMNSLKPEDTAVYYCATRFYRPRDGLYDYWGQGTQVTVSS", "polyreactivity (PSR sort gate)": "high polyreactivity"}
{"item.sequence": "QVQLVESGGGLVQAGGSLRLSCAASGSTVRRNTMGWYRQAPGKERELVAGISSSGGSTYYADSVKGRFTISRDNAKNTVYLQINSLKPEDTAVYYCAARFYVSYVGYNYWGQGTQVTVSS", "polyreactivity (PSR sort gate)": "high polyreactivity"}
{"item.sequence": "QVHLVESGGGLVQAGGSLRLSCAASGSIFTRYTMGWYRQAPGKERELVAAITRSGGSTYYADSVKGRFTISRDNAKNTVYLQMNSLKPEDTAVYYCAARVRLATGARDYWGQGTQVTVSS", "polyreactivity (PSR sort gate)": "high polyreactivity"}
{"item.sequence": "QVQLVESGGGLVQAGGSLRLSCAASGRTFYSNAMGWYRQAPGKERELVATISSGGSTNYADSVKGRFTISRDNAKNTVYLQMNSLKPEDTAVYYCATRPDRINDYWGQGTQVTVSS", "polyreactivity (PSR sort gate)": "low polyreactivity"}
{"item.sequence": "QDQLVESGGGLVQAGGSLRLSCAASGRIFRTYAMGWYRQAPRQERELVAAIRSGGSTKYADSVKGRFTISRDNAKNTVYLQMKSLKPEDTAVYYCAAAVLGRYSAGDGYWGQGTQVTVSS", "polyreactivity (PSR sort gate)": "low polyreactivity"}
{"item.sequence": "QVQLVESGGGLVQAGGSLRLSCAASGFIFDYNVMGWYSQAPGKKGSWVAAISWSGGSTYYADSVKGRFTISRDNAKNTVYLEINSLKPEDTAVYYCSSRGTSTFRGTGRYDYWGQGTQVTVSS", "polyreactivity (PSR sort gate)": "high polyreactivity"}
{"item.sequence": "QVQLVESGGGIVQAGGSLRLSCAASGFTFTHYAMGWYRQAPGKERELVAAISPSGGSTYYADSVKGRFTISRDNAKNTVYLQMNSLKTEDTAVFYFAARRDGWVQWGYYYWGQGTEVTVSS", "polyreactivity (PSR sort gate)": "low polyreactivity"}
{"item.sequence": "QVQLVESGGGLVQAGGSLRLSCAASGRIFYGYAMGWYRQAPGKERELVAAIRTSGGSTYYADSVKGRFTISRDNAKNTVYLQMNSLKPEDTAVYYCNAGIVPRNRYYTPYNYWGQGTQVTVSS", "polyreactivity (PSR sort gate)": "low polyreactivity"}
{"item.sequence": "QVQLVESGGGLVQAGGSLRFSCAASGSTFRKNAMGWYRQAPGKERELFASISISGGRTNYADSVKGRFTISRDHAKNTVYLQLNSLKPEDTAVYDCAATTSPRSARYYYWGQGTQVTVSS", "polyreactivity (PSR sort gate)": "high polyreactivity"}
